- Test system: CD2F1 mice, L1210 leukemia ip, survival T/C
- test-protocol: NCI In Vivo Anticancer Drug Screen. Data for tumor model L1210 Leukemia (intraperitoneal) in CD2F1 (CDF1) mice
- conditions: endpoint: mean survival time; dose: 400.0 mg/kg/injection; schedule: Q04DX003 (ip); vehicle: saline with Tween-80; higher = longer survival
Inconclusive results and toxic doses are left out.
measured-property: T/C

[ask] For N#Cc1ccc(C(=O)CC(O)(C(F)(F)F)C(F)(F)F)cc1 , what is its reported T/C?
[reply] 98 % of control

[ask] Endpoint output: T/C of CC(=O)OCC(Br)C(Br)COC(C)=O (stereo not given) . Value?
[reply] 97 % of control

[ask] Reported T/C for Cc1ccc(NC(=O)Nc2ccccc2Cl)c(C)c1 : what is it?
[reply] 93 % of control

[ask] What does the record list as T/C for CCOC(=O)C(O)(C(=O)OCC)c1ccc(C)cc1 ?
[reply] 100 % of control

[ask] # get_value(readout='T/C', item= Cn1c(=O)cc(C(=O)NCCCN2CCOCC2)c2ccccc21 )
[reply] 87 % of control

[ask] May I ask what T/C has been recorded for CC(C)CCC(C)C1CCC2C3CC([N+](=O)[O-])=C4CC(OC(=O)c5ccccc5)CCC4(C)C3CCC12C (stereo not given) ?
[reply] 92 % of control

[ask] Consider the compound shown here: c1ccc(P(c2ccccc2)c2ccccc2)cc1 What is its recorded T/C?
[reply] 93 % of control

[ask] // returns reported T/C for input Cc1cc2c(-c3ccccc3)c(-c3ccccc3)oc(=O)c2cc1C
[reply] 92 % of control

[ask] Query: T/C; subject: CNC(=O)C(=O)NC
[reply] 101 % of control

[ask] Looking for the measured T/C of c1ccc(C2=NNC(c3ccccn3)=NN2)nc1 , can you help?
[reply] 101 % of control

[ask] If you can, please state the reported T/C value of C=CC/C(C)=C/C=C/C(C)C(=O)O (stereo not given) .
[reply] 95 % of control

[ask] Field request: T/C | item: CCCCCCCC(=O)Nc1ccc(CC)cc1
[reply] 93 % of control

[ask] What value of measured T/C is listed for O=C(Cc1cccc2ccccc12)N/N=C/c1ccc2c(c1)CCC2 ?
[reply] 95 % of control

[ask] Which T/C value is on record for Nc1cc(Cl)c(Cl)cc1S(=O)(=O)NO ?
[reply] 89 % of control

[ask] For CCC(/C=C/C(C)C1CCC2C3CCC45CC4CCC5(C)C3CCC12C)C(C)C (stereo not given) , what is its reported T/C?
[reply] 87 % of control

[ask] Entry under review: O=C(Nc1ccccc1I)c1ccccc1 . Reported T/C?
[reply] 98 % of control

[ask] Looking for the measured T/C of CNc1ccc(C(=O)O)cc1OC , can you help?
[reply] 103 % of control

[ask] What value of T/C has been recorded for this entry: CCCC(C(=O)O)C(CCC)C(=O)O (stereo not given)
[reply] 101 % of control

[ask] Requested field: T/C. Item: Cc1c(NS(=O)(=O)c2ccccc2)c(C)c(NS(=O)(=O)c2ccccc2)c(C)c1NS(=O)(=O)c1ccccc1
[reply] 96 % of control

[ask] So what does the record say about T/C for C(=C\c1ccncc1)/c1ccccc1 ?
[reply] 93 % of control

[ask] // query T/C value for entry O=[N+]([O-])c1ccc(/C=C/c2ccccc2)cc1
[reply] 96 % of control

[ask] Item COC(=O)C(C)NC(=O)CCNC(=O)OCc1ccccc1 (stereo not given) has what recorded T/C?
[reply] 90 % of control

[ask] Using the record for Cc1c([N+](=O)[O-])cc2c(c1[N+](=O)[O-])C(C)(C)CC2(C)C , report its T/C.
[reply] 94 % of control

[ask] If you can, please state the reported T/C value of O=C(COc1ccc(Br)cc1C(=O)O)Nc1ccccc1 .
[reply] 94 % of control

[ask] Give the measured T/C of COC(=O)c1cc(C)n(-c2ccc(C)cc2)c1C .
[reply] 97 % of control

The measurements presented in this section are drawn from PubChem BioAssay AID256.
